Entry source: paper PMC6030209

molecular target: mSUCNR1 (Mus musculus); construct: FLAG (own knowledge: pCMV-Tag 2B is an N-terminal FLAG vector); host or cells: HEK-293, transient transfection with Lipofectamine-2000; experiment: IP3 turnover assay in mSUCNR1 transfected HEK-293 cells; format: cell-based
Sequence (Q99MT6 whole entry): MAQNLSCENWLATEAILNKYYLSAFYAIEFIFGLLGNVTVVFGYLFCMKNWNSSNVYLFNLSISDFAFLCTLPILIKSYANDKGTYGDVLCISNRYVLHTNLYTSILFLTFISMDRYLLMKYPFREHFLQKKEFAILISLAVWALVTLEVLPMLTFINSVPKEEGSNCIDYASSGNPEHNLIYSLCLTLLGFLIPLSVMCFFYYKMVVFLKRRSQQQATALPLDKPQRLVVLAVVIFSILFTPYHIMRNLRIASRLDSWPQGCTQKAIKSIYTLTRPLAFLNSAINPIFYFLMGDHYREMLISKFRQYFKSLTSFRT
PROPERTY NAME: log10 of EC50 (log10 of the value in nM)
Answers are given as log10 of EC50 in nM.

For orientation, consider the following solved cases.
{"MOLECULAR STRING": "O=C(O)C[C@H](NC(=O)c1ccc(-c2cccc(CO)c2)o1)C(=O)O", "log10 of EC50": 3.29}
{"MOLECULAR STRING": "CC1(COc2ccc(-c3ccc(C(=O)N[C@@H](CC(=O)O)C(=O)O)o3)cc2)COC1", "log10 of EC50": 2.03}
{"MOLECULAR STRING": "O=C(O)C[C@H](NC(=O)c1cccc(-c2ccc(OC(F)(F)F)cc2)n1)C(=O)O", "log10 of EC50": 2.25}

Q: Report the value of log10 of EC50 obtained on mSUCNR1 (Mus musculus) for `N#Cc1ccc(-c2ccc(C(=O)N[C@@H](CC(=O)O)C(=O)O)o2)cc1` .
Result: 2.21

Q: Report the value of log10 of EC50 obtained on mSUCNR1 (Mus musculus) for `O=C(O)C[C@H](NC(=O)c1ccc(-c2ccccc2)o1)C(=O)O` .
Result: 2.84

Q: Report the value of log10 of EC50 obtained on mSUCNR1 (Mus musculus) for `CC(C)Oc1ccc(-c2ccc(C(=O)N[C@@H](CC(=O)O)C(=O)O)o2)cc1` .
Result: 1.71

Q: Report the value of log10 of EC50 obtained on mSUCNR1 (Mus musculus) for `COc1ccc(-c2ccc(C(=O)N[C@@H](CC(=O)O)C(=O)O)o2)cc1` .
Result: 1.61

Q: Report the value of log10 of EC50 obtained on mSUCNR1 (Mus musculus) for `CS(=O)(=O)CCCOc1ccc(-c2ccc(C(=O)N[C@@H](CC(=O)O)C(=O)O)o2)cc1` .
Result: 1.67

Q: Report the value of log10 of EC50 obtained on mSUCNR1 (Mus musculus) for `O=C(O)C[C@H](NC(=O)c1ccc(-c2ccc(OC(F)(F)F)cc2)o1)C(=O)O` .
Result: 2.28

Q: Report the value of log10 of EC50 obtained on mSUCNR1 (Mus musculus) for `Cc1cccc(-c2ccc(C(=O)N[C@@H](CC(=O)O)C(=O)O)o2)c1` .
Result: 2.93

Q: Report the value of log10 of EC50 obtained on mSUCNR1 (Mus musculus) for `Cc1ccccc1-c1ccc(C(=O)N[C@@H](CC(=O)O)C(=O)O)o1` .
Result: 2.87

Q: Report the value of log10 of EC50 obtained on mSUCNR1 (Mus musculus) for `COc1ccccc1-c1ccc(C(=O)N[C@@H](CC(=O)O)C(=O)O)o1` .
Result: 2.86

Q: Report the value of log10 of EC50 obtained on mSUCNR1 (Mus musculus) for `CCOc1ccc(-c2ccc(C(=O)N[C@@H](CC(=O)O)C(=O)O)o2)cc1` .
Result: 1.56

Q: Report the value of log10 of EC50 obtained on mSUCNR1 (Mus musculus) for `O=C(O)C[C@H](NC(=O)c1ccc(-c2ccc(O)cc2)o1)C(=O)O` .
Result: 2.18

Q: Report the value of log10 of EC50 obtained on mSUCNR1 (Mus musculus) for `O=C(O)C[C@H](NC(=O)c1ccc(-c2ccc(C(F)(F)F)cc2)o1)C(=O)O` .
Result: 2.19

----------
biological target: hSUCNR1 (Homo sapiens); construct: FLAG (own knowledge: pCMV-Tag 2B is an N-terminal FLAG vector); host or cells: HEK-293, transient transfection with Lipofectamine-2000; assay: IP3 turnover assay in hSUCNR1 transfected HEK-293 cells; format: cell-based
Sequence (Q9BXA5 whole entry): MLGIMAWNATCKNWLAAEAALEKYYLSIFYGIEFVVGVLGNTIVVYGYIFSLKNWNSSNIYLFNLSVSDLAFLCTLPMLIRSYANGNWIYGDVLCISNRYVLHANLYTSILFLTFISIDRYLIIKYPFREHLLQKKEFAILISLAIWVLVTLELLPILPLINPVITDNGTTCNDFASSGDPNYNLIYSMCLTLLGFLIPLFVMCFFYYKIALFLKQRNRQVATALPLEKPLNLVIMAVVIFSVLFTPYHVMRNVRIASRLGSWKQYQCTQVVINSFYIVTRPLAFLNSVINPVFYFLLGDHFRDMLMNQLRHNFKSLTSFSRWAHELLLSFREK
PROPERTY NAME: EC50 (µM)
Kindly provide the numeric value in µM only, without the unit symbol.

{"MOLECULE": "COc1ccccc1-c1ccc(C(=O)N[C@@H](CC(=O)O)C(=O)O)o1 [Compound 16]", "VALUE UNIT": "µM", "EC50": 5.13}

Q: Supply reported EC50 belonging to this molecule: O=C(O)C[C@H](NC(=O)c1ccc(-c2ccccc2)o1)C(=O)O [Compound 10]
Result: 5.13

Q: Supply reported EC50 belonging to this molecule: O=C(O)C[C@H](NC(=O)c1ccc(-c2ccc(C(F)(F)F)cc2)o1)C(=O)O [Compound 18]
Result: 0.282

Q: Supply reported EC50 belonging to this molecule: O=C(O)C[C@H](NC(=O)c1ccc(-c2cccc(CO)c2)o1)C(=O)O [Compound 14]
Result: 15.5

Q: Supply reported EC50 belonging to this molecule: CC1(COc2ccc(-c3ccc(C(=O)N[C@@H](CC(=O)O)C(=O)O)o3)cc2)COC1 [Compound 23]
Result: 0.537

Q: Supply reported EC50 belonging to this molecule: Cc1cccc(-c2ccc(C(=O)N[C@@H](CC(=O)O)C(=O)O)o2)c1 [Compound 12]
Result: 9.55

----------
molecular target: hSUCNR1 (Homo sapiens); construct: FLAG (own knowledge: pCMV-Tag 2B is an N-terminal FLAG vector); host or cells: HEK-293, transient transfection with Lipofectamine-2000; test: IP3 turnover assay in hSUCNR1 transfected HEK-293 cells; assay type: cell-based; conditions: efficacy relative to succinate (100%); IP3 turnover, HEK cells (N = 3)
Cut-off 70% on hSUCNR1 efficacy, %, inclusive. At or above means yes (1); below means no (0).

Here are 5 compounds together with their reported answers.
{"COMPOUND": "O=C(O)C[C@H](NC(=O)c1cccc(-c2ccc(OC(F)(F)F)cc2)c1)C(=O)O [Compound 30]", "MEASURED TARGET": "hSUCNR1 (Homo sapiens)", "LABEL": "no (0)"}
{"COMPOUND": "CCCOc1ccc(-c2cccc(C(=O)N[C@@H](CC(=O)O)C(=O)O)n2)cc1 [Compound 33]", "MEASURED TARGET": "hSUCNR1 (Homo sapiens)", "LABEL": "no (0)"}
{"COMPOUND": "Cc1ccccc1-c1ccc(C(=O)N[C@@H](CC(=O)O)C(=O)O)o1 [Compound 11]", "MEASURED TARGET": "hSUCNR1 (Homo sapiens)", "LABEL": "yes (1)"}
{"COMPOUND": "O=C(O)C[C@H](NC(=O)c1cccc(-c2ccc(F)cc2)c1)C(=O)O [Compound 25]", "MEASURED TARGET": "hSUCNR1 (Homo sapiens)", "LABEL": "no (0)"}
{"COMPOUND": "O=C(O)C[C@H](NC(=O)c1ccc(-c2ccc(C(F)(F)F)cc2)o1)C(=O)O [Compound 18]", "MEASURED TARGET": "hSUCNR1 (Homo sapiens)", "LABEL": "yes (1)"}

Q: # check: hSUCNR1 efficacy, % of O=C(O)C[C@H](NC(=O)c1ccc(-c2cccc(CO)c2)o1)C(=O)O [Compound 14] is greater than or equal to 70%
Result: yes (1)

Q: # check: hSUCNR1 efficacy, % of COc1ccccc1-c1ccc(C(=O)N[C@@H](CC(=O)O)C(=O)O)o1 [Compound 16] is greater than or equal to 70%
Result: yes (1)
